Test system: mice
Experiment: In vivo predictive sedation-hypnosis test (inhibition of traveled distance)
Parameters: species or system mouse
Settings: male CD1 mice; single equimolecular intraperitoneal doses; traveled distance over 30 min after dosing (first 5 min discarded) versus control
Entries and their % Inhibition Motor Activity values follow.
# number only, unit % dropped from output

| GIVEN_SMILES | % Inhibition Motor Activity, % |
| --- | --- |
| Cc1ccc(-c2nc3ccc(C)cn3c2CNC(=O)c2csc(C)n2)cc1 | 78.41 |

Give the value of % Inhibition Motor Activity reported for the following: Cc1ccc(-c2nc3ccc(C)cn3c2CN(C)C(=O)c2ccc(N(C)C)cc2)cc1
89.45

Give the value of % Inhibition Motor Activity reported for the following: Cc1ccc(-c2nc3ccc(C)cn3c2CN(C)C(=O)c2ccc([N+](=O)[O-])o2)cc1
92.66

Give the value of % Inhibition Motor Activity reported for the following: C#CCN(Cc1c(-c2ccc(C)cc2)nc2ccc(C)cn12)C(=O)C1CC1
40.35

Give the value of % Inhibition Motor Activity reported for the following: Cc1ccc(-c2nc3ccc(C)cn3c2CNC(=O)c2cn(C)cn2)cc1
77.37

###

System: mice
Experiment: In vivo predictive sedation-hypnosis test (inhibition of traveled distance)
Set-up: species or system mouse
Conditions: male CD1 mice; single equimolecular intraperitoneal doses; traveled distance over 30 min after dosing (first 5 min discarded) versus control
PROPERTY: % Inhibition Motor Activity (%)
# number only, unit % dropped from output

| GIVEN_SMILES | % Inhibition Motor Activity / % |
| --- | --- |
| CC(=O)c1ccc(C(=O)NCc2c(-c3ccc(C)cc3)nc3ccc(C)cn23)cc1 | 56.84 |
| COc1ccc2nc(C(=O)NCc3c(-c4ccc(C)cc4)nc4ccc(C)cn34)sc2c1 | 57.14 |

Give the value of % Inhibition Motor Activity reported for the following: Cc1ccc(-c2nc3ccc(C)cn3c2CNC(=O)c2cc(F)c(Cl)cc2Cl)cc1
48.13

Give the value of % Inhibition Motor Activity reported for the following: Cc1ccc(-c2nc3ccc(C)cn3c2CNC(=O)c2ccccn2)cc1
90.40

Give the value of % Inhibition Motor Activity reported for the following: Cc1ccc(-c2nc3ccc(C)cn3c2CNC(=O)c2cc(C)n(C)n2)cc1
78.09

Give the value of % Inhibition Motor Activity reported for the following: Cc1ccc(-c2nc3ccc(C)cn3c2CN(C)C(=O)c2cscn2)cc1
89.33

Give the value of % Inhibition Motor Activity reported for the following: Cc1ccc(-c2nc3ccc(C)cn3c2CNC(=O)c2cnccn2)cc1
74.65

Give the value of % Inhibition Motor Activity reported for the following: Cc1ccc(-c2nc3ccc(C)cn3c2CNC(=O)c2ccc(C)n2C)cc1
78.09

Give the value of % Inhibition Motor Activity reported for the following: Cc1ccc(-c2nc3ccc(C)cn3c2CNC(=O)c2nc(C)oc2C)cc1
93.22

###

System: mice
Assay: In vivo predictive sedation-hypnosis test (inhibition of traveled distance)
Set-up: species or system mouse
Conditions: male CD1 mice; single equimolecular intraperitoneal doses; traveled distance over 30 min after dosing (first 5 min discarded) versus control
PROPERTY: % Inhibition Motor Activity (%)
# number only, unit % dropped from output

Below, each entry is followed by its recorded % Inhibition Motor Activity result.
| COMPOUND | % Inhibition Motor Activity / % |
| --- | --- |
| Cc1ccc(-c2nc3ccc(C)cn3c2CNC(=O)c2ccco2)cc1 [Example 4] | 73.28 |
| Cc1ccc(-c2nc3ccc(C)cn3c2CC(=O)N(C)C)cc1 [Zolpidem, reference compound] | 90.80 |
| Cc1ccc(-c2nc3ccc(C)cn3c2CNC(=O)c2ccc(N(C)C)cc2)cc1 [Example 3] | 45.59 |
| Cc1ccc(-c2nc3ccc(C)cn3c2CNC(=O)c2csnn2)cc1 [Example 70] | 90.77 |

Then there is this compound:
Print mice % Inhibition Motor Activity for Cc1ccc(-c2nc3ccc(C)cn3c2CNC(=O)c2ncc(F)cc2F)cc1 [Example 20] .
91.99

###

System: α1-GABAA receptor
Test: Ligand-binding assay, competitive with radiolabeled flumazenil, cerebellum membranes
Conditions: Affinity for α1-GABAA receptor; 10^-7M test compound; rat cerebellum membranes; radiolabeled flumazenil 1 nM
Threshold rule: % Inhibition 10^−7M greater than or equal to 20% is Criterion met; below that, Criterion not met.

A selection of reference data follows.
| COMPOUND | QUALITATIVE_LABEL |
| --- | --- |
| Cc1ccc(-c2nc3ccc(C)cn3c2CNC(=O)c2nc(C)oc2C)cc1 [Example 83] | Criterion met |
| Cc1ccc(-c2nc3ccc(C)cn3c2CN(C)C(=O)C2CC2)cc1 [Example 24] | Criterion met |
| Cc1ccc(-c2nc3ccc(C)cn3c2CN(C)C(=O)c2ccc([N+](=O)[O-])cc2)cc1 [Example 31] | Criterion not met |
| COc1ccc2nc(C(=O)NCc3c(-c4ccc(C)cc4)nc4ccc(C)cn34)sc2c1 [Example 21] | Criterion not met |
| Cc1ccc(-c2nc3ccc(C)cn3c2CNC(=O)Cc2cccs2)cc1 [Example 71] | Criterion met |

Answer whether % Inhibition 10^−7M of Cc1ccc(-c2nc3ccc(C)cn3c2CN(C)C(=O)c2cnoc2C)cc1 [Example 99] is greater than or equal to 20%.
Criterion met

Answer whether % Inhibition 10^−7M of Cc1ccc(-c2nc3ccc(C)cn3c2CNC(=O)C2CCC2)cc1 [Example 58] is greater than or equal to 20%.
Criterion not met

Answer whether % Inhibition 10^−7M of Cc1ccc(-c2nc3ccc(C)cn3c2CNC(=O)c2cc(C)n(C)n2)cc1 [Example 67] is greater than or equal to 20%.
Criterion met

Answer whether % Inhibition 10^−7M of Cc1ccc(-c2nc3ccc(C)cn3c2CNC(=O)c2cnc(C)cn2)cc1 [Example 61] is greater than or equal to 20%.
Criterion met

Answer whether % Inhibition 10^−7M of Cc1ccc(C(=O)N(C)Cc2c(-c3ccc(C)cc3)nc3ccc(C)cn23)cc1 [Example 30] is greater than or equal to 20%.
Criterion not met

###

Tested on: α1-GABAA receptor
Test: Ligand-binding assay, competitive with radiolabeled flumazenil, cerebellum membranes
Conditions: Affinity for α1-GABAA receptor; 10^-7M test compound; rat cerebellum membranes; radiolabeled flumazenil 1 nM
Threshold rule: % Inhibition 10^−7M greater than or equal to 80% is True; below that, False.

A selection of reference data follows.
| GIVEN_SMILES | QUALITATIVE_LABEL |
| --- | --- |
| CC(=O)c1ccc(C(=O)NCc2c(-c3ccc(C)cc3)nc3ccc(C)cn23)cc1 | False |
| Cc1ccc(-c2nc3ccc(C)cn3c2CNC(=O)c2sccc2C)cc1 | False |
| Cc1ccc(-c2nc3ccc(C)cn3c2CNC(=O)c2occc2C)cc1 | False |

Alright, here's another compound for you.
Answer whether % Inhibition 10^−7M of Cc1ccc(-c2nc3ccc(C)cn3c2CNC(=O)c2cnccn2)cc1 is greater than or equal to 80%.
True

###

Tested on: α1-GABAA receptor
Experiment: Ligand-binding assay, competitive with radiolabeled flumazenil, cerebellum membranes
Settings: Affinity for α1-GABAA receptor; 10^-7M test compound; rat cerebellum membranes; radiolabeled flumazenil 1 nM
PROPERTY: % Inhibition 10^−7M (%)
# number only, unit % dropped from output

| COMPOUND | UNIT_TAG | % Inhibition 10^−7M |
| --- | --- | --- |
| Cc1ccc(-c2nc3ccc(C)cn3c2CNC(=O)C2=NNC(=O)CC2)cc1 [Example 65] | % | 83.9 |

Then there is this compound:
Give the value of % Inhibition 10^−7M reported for the following: Cc1ccc(-c2nc3ccc(C)cn3c2CNC(=O)c2cn(C)cn2)cc1 [Example 74]
95.3

###

Test system: α1-GABAA receptor
Test: Ligand-binding assay, competitive with radiolabeled flumazenil, cerebellum membranes
Details: Affinity for α1-GABAA receptor; 10^-7M test compound; rat cerebellum membranes; radiolabeled flumazenil 1 nM
Threshold rule: % Inhibition 10^−7M greater than or equal to 70% is yes (1); below that, no (0).

| MOLECULE | MEASURED_ON | QUALITATIVE_LABEL |
| --- | --- | --- |
| Cc1ccc(-c2nc3ccc(C)cn3c2CNC(=O)c2cccnc2)cc1 [Example 63] | α1-GABAA receptor | no (0) |

Answer whether % Inhibition 10^−7M of Cc1ccc(-c2nc3ccc(C)cn3c2CN(C)C(=O)c2cccs2)cc1 [Example 29] is greater than or equal to 70%.
yes (1)

Answer whether % Inhibition 10^−7M of Cc1ccc(-c2nc3ccc(C)cn3c2CN(C)C(=O)c2cscn2)cc1 [Example 94] is greater than or equal to 70%.
yes (1)

Answer whether % Inhibition 10^−7M of Cc1ccc(-c2nc3ccc(C)cn3c2CNC(=O)c2csc([N+](=O)[O-])c2)cc1 [Example 88] is greater than or equal to 70%.
no (0)

Answer whether % Inhibition 10^−7M of Cc1ccc(-c2nc3ccc(C)cn3c2CNC(=O)c2ccc3ccccc3n2)cc1 [Example 19] is greater than or equal to 70%.
no (0)

Answer whether % Inhibition 10^−7M of Cc1ccc(-c2nc3ccc(C)cn3c2CNC(=O)c2ccnc(Cl)c2)cc1 [Example 17] is greater than or equal to 70%.
no (0)

Answer whether % Inhibition 10^−7M of Cc1ccc(-c2nc3ccc(C)cn3c2CNC(=O)c2csnn2)cc1 [Example 70] is greater than or equal to 70%.
yes (1)

Answer whether % Inhibition 10^−7M of Cc1ccc(-c2nc3ccc(C)cn3c2CNC(=O)c2cc(C)on2)cc1 [Example 72] is greater than or equal to 70%.
yes (1)

Answer whether % Inhibition 10^−7M of Cc1ccc(-c2nc3ccc(C)cn3c2CNC(=O)c2ccc(N(C)C)cc2)cc1 [Example 3] is greater than or equal to 70%.
no (0)

Answer whether % Inhibition 10^−7M of COc1ccc(C(=O)N(C)Cc2c(-c3ccc(C)cc3)nc3ccc(C)cn23)cc1 [Example 25] is greater than or equal to 70%.
no (0)
